System: SBC-5 (Small Cell Lung Carcinoma)
Experiment: combination Emax (second highest fraction inhibited in the dose matrix, 72 h); higher = more inhibition; extreme values may be limits of the assay
Recorded combination Emax values for a group of molecules are listed next.

- molecule: "CS(=O)(=O)CCNCc1ccc(-c2ccc3ncnc(Nc4ccc(OCc5cccc(F)c5)c(Cl)c4)c3c2)o1 [Lapatinib] + NC1(c2ccc(-c3nc4ccn5c(=O)[nH]nc5c4cc3-c3ccccc3)cc2)CCC1 [MK-2206] (first compound max 10 µM, 7x7, partner max 10 µM)"
  assay-target: "SBC-5 (Small Cell Lung Carcinoma)"
  combination Emax: 0.853
- molecule: "COc1cccc(OCCCN)c1-c1cc(Nc2cnc(C#N)cn2)n[nH]1 [Prexasertib] + Cc1cc2ncnn2cc1Nc1ncc2c(n1)n(C1CCOCC1)c(=O)n2C [AZD7648] (first compound max 1 µM, 7x7, partner max 10 µM)"
  assay-target: "SBC-5 (Small Cell Lung Carcinoma)"
  combination Emax: 0.901
- molecule: "C[C@@H]1COCCN1c1cc(C2([S@](C)(=N)=O)CC2)nc(-c2ccnc3[nH]ccc23)n1 [AZD6738] + O=C(c1cc(Cc2n[nH]c(=O)c3ccccc23)ccc1F)N1CCN(C(=O)C2CC2)CC1 [Olaparib] (first compound max 10 µM, 7x7, partner max 10 µM)"
  assay-target: "SBC-5 (Small Cell Lung Carcinoma)"
  combination Emax: 0.789
- molecule: "CCN(CCO)CCCOc1ccc2c(Nc3cc(CC(=O)Nc4cccc(F)c4)[nH]n3)ncnc2c1 [AZD2811] + C[C@@H]1COCCN1C2=NC(=NC(=C2)C3(CC3)[S@](=N)(=O)C)C4=C5C=CNC5=NC=C4 [AZD6738] (first compound max 1 µM, 7x7, partner max 10 µM)"
  assay-target: "SBC-5 (Small Cell Lung Carcinoma)"
  combination Emax: 0.754
